Biological target: benzodiazepine site of the GABAA receptor
Assay: GABAA-benzodiazepine site binding assay ([3H]-Ro-15-1788)
Conditions: reference compound
endpoint_label: pIC50
The read-out pIC50 is expressed as -log10 of concentration in moles per litre.

Item: `CN1C(=O)CN=C(c2ccccc2)c2cc(Cl)ccc21` | pIC50: 7.41

###

Target: human serotonin 5-HT2C(e) receptors
Assay: serotonin 5-HT2C(e) receptor binding assay ([3H]-mesulergine)
Details: reference compound
Procedure: The serotonin 5-HT2C(e) receptor binding assay was performed according to the data sheet provided by the supplier of the receptor preparation, with modifications. […] The IC50 value (concentration causing half-maximal inhibition of specific binding) was determined by non-linear regression analysis of the competition curves using the “sigmoidal dose-response” algorithm (GraphPad Prism, San Diego, USA). […]
Structures can show the parent of a compound that is named as a salt.
endpoint_label: pIC50
The read-out pIC50 is expressed as -log10 of concentration in moles per litre.

Item: O=C1Nc2cc(Cl)c(Cl)cc2N2CCNCC12 (stereo not shown) [WAY 161503, WAY 161503 hydrochloride] | pIC50: 6.79

Recorded values, source paper PMC6567565.
